This section presents molecules with their documented melting point values.

1) Cc1ccc(Nc2ccccc2O[C@@H]2S[C@H](CO)[C@@H](O)[C@H](O)[C@H]2O)cc1 152 to 153 °C
2) OCc1ccc(Cc2ccccc2O[C@@H]2S[C@H](CO)[C@@H](O)[C@H](O)[C@H]2O)cc1 184 to 186.5 °C
3) OC[C@H]1S[C@@H](Oc2ccc(Cl)cc2Cc2ccc(F)cc2F)[C@H](O)[C@@H](O)[C@@H]1O 175.5 to 177 °C
4) CCc1ccc(Cc2ccc(O)cc2O[C@@H]2S[C@H](CO)[C@@H](O)[C@H](O)[C@H]2O)cc1 172 to 173.5 °C
5) Cc1csc(Cc2ccccc2O[C@@H]2S[C@H](CO)[C@@H](O)[C@H](O)[C@H]2O)n1 197 to 200 °C

Exercise: Entry "CC(=O)Nc1ccc(Cc2cc(Cl)ccc2O[C@@H]2S[C@H](CO)[C@@H](O)[C@H](O)[C@H]2O)cc1" : reported melting point = ?
Solution: 235 to 236.5 °C

Exercise: Entry "OC[C@H]1S[C@@H](Oc2ccc(Cl)cc2Cc2cccc(OC(F)(F)F)c2)[C@H](O)[C@@H](O)[C@@H]1O" : reported melting point = ?
Solution: 146 to 148 °C

Exercise: Entry "CCc1ccc(Cc2ccc(CO)cc2O[C@@H]2S[C@H](CO)[C@@H](O)[C@H](O)[C@H]2O)cc1" : reported melting point = ?
Solution: 206 to 211 °C

Exercise: Entry "O=C(Nc1ccccc1)c1cc2ccccc2cc1O[C@@H]1S[C@H](CO)[C@@H](O)[C@H](O)[C@H]1O" : reported melting point = ?
Solution: 200 to 202 °C

Exercise: Entry "COc1cc(OC)c(Cc2ccccc2O[C@@H]2S[C@H](CO)[C@@H](O)[C@H](O)[C@H]2O)c(OC)c1" : reported melting point = ?
Solution: 100 to 105 °C

Exercise: Entry "CCc1ccc(Cc2c(O)cccc2O[C@@H]2S[C@H](CO)[C@@H](O)[C@H](O)[C@H]2O)cc1" : reported melting point = ?
Solution: 238 to 242.5 °C

Exercise: Entry "CCc1ccc(Cc2cc(C(=O)OC)ccc2O[C@@H]2S[C@H](CO)[C@@H](O)[C@H](O)[C@H]2O)cc1" : reported melting point = ?
Solution: 196 to 198 °C

Exercise: Entry "OC[C@H]1S[C@@H](Oc2ccccc2Cc2ccc(-n3cccn3)cc2)[C@H](O)[C@@H](O)[C@@H]1O" : reported melting point = ?
Solution: 208 to 210 °C

Exercise: Entry "OC[C@H]1S[C@@H](Oc2ccc(Cl)cc2Cc2cccc3ccccc23)[C@H](O)[C@@H](O)[C@@H]1O" : reported melting point = ?
Solution: 170 to 175 °C

Exercise: Entry "OC[C@H]1S[C@@H](Oc2ccc(Cl)cc2Cc2ccc(-c3ccccc3)cc2)[C@H](O)[C@@H](O)[C@@H]1O" : reported melting point = ?
Solution: 187 to 195 °C

* * *

This section presents molecules with their documented melting point values.

Some molecules with recorded melting point:
1) O=[N+]([O-])c1ccc(Cc2cc(Cl)ccc2O[C@@H]2S[C@H](CO)[C@@H](O)[C@H](O)[C@H]2O)cc1 180 to 182 °C
2) CCCCCOc1ccc(Cc2cc(Cl)ccc2O[C@@H]2S[C@H](CO)[C@@H](O)[C@H](O)[C@H]2O)cc1 143 to 144.5 °C

Exercise: Entry "OC[C@H]1S[C@@H](Oc2ccc(Cl)cc2Cc2ccc(Cl)cc2Cl)[C@H](O)[C@@H](O)[C@@H]1O" : reported melting point = ?
Solution: 172 to 174 °C

Exercise: Entry "OC[C@H]1S[C@@H](Oc2ccc(Cl)cc2Cc2ccc3ccccc3c2)[C@H](O)[C@@H](O)[C@@H]1O" : reported melting point = ?
Solution: 192 to 194 °C

Where these numbers come from: patent US7414072B2
